# assayed_target: T1, human CD20 (human, UniProt P11836 1-297)
# T1 sequence: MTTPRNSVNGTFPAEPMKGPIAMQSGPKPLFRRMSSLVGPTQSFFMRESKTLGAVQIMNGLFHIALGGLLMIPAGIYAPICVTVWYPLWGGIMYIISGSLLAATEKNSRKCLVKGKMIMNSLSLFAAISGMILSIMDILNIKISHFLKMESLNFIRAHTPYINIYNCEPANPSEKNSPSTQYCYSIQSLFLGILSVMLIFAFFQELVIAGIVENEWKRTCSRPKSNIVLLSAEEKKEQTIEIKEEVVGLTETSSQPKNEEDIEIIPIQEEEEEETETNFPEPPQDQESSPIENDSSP
# protocol_summary: cell-based or functional assay
readout_type: % Cytotoxicity (CDC, Daudi), 6 hour (%)
Please state the figure in %; there is no need to write the unit.

Use the examples below as a reference point.
binder: 6F6-1 (antibody, V domains shown, Fully human IgG, constant region not specified; also called 6F6-1N) VH: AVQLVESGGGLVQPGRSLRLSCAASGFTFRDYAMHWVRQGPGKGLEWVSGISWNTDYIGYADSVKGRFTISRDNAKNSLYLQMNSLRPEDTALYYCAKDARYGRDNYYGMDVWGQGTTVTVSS VL: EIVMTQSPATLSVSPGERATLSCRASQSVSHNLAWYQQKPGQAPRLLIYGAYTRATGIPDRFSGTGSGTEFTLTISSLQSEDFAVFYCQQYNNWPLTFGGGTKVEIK
% Cytotoxicity (CDC, Daudi), 6 hour, %: 76.4

binder: rituximab (RITUXAN, IDEC Pharmaceuticals Corp.) (antibody, V domains shown) VH: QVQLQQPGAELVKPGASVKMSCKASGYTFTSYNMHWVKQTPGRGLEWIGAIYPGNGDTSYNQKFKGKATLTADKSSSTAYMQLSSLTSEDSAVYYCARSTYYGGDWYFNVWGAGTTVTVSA VL: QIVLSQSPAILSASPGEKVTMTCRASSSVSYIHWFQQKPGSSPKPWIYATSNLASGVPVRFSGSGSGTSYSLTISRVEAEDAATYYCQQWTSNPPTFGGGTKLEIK
% Cytotoxicity (CDC, Daudi), 6 hour, %: 52.1

binder: 3H7-6 (antibody, V domains shown, Fully human IgG, constant region not specified; also called 3H7-6N) VH: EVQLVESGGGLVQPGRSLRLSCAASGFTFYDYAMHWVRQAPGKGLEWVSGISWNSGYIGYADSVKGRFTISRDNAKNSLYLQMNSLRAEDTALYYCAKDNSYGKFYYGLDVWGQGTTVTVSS VL: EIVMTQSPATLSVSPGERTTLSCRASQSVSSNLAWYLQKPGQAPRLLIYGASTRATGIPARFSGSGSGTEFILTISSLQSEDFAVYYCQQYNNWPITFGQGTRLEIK
% Cytotoxicity (CDC, Daudi), 6 hour, %: 67.6

The record that follows has no % Cytotoxicity (CDC, Daudi), 6 hour shown yet.
Reported % Cytotoxicity (CDC, Daudi), 6 hour for 6B9-4 (antibody, V domains shown, Fully human IgG, constant region not specified; also called 6B9-4N) VH: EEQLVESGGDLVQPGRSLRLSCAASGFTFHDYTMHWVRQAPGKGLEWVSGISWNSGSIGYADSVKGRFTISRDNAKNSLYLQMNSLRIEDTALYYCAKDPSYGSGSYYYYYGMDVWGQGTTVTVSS VL: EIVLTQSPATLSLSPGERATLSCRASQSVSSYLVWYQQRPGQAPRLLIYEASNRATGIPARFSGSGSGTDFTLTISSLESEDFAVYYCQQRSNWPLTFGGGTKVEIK : what is it?
97.5
